target_desc: T1, recombinant human PD-L1-His (human, UniProt Q9NZQ7 19-238)
T1 construct: Analyte of the BLI assay; also called hPD-L1
experiment_notes: BLI (Octet RED96), antibody captured on AHC biosensor, PD-L1-His in solution, 1:1 model;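 further: rates obtained by 1:1 Langmuir fitting of the binding response, using a 2.5 min association phase then a 5 min dissociation phase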
The entries below are paired with their reported kon.
Numbers only here, please. The scale is M⁻¹ s⁻¹.

Some binders with known kon results, for comparison:
>  <binder>
PHS102.HSYPP411C (antibody, human IgG1, kappa, N297A, V domains shown, full-length human IgG1-N297A / kappa) VH: EVQLVESGGGLVQPGGSLRLSCAASGFTIDNTYIHWVRQAPGKGLEWVARIDPANGKTTYADSVKGRFTISADTSKNTANLQMNSLRAEDTAVYYCARSFSWWADYWGQGTLVTVSS VL: DIQMTQSPSSLSASVGDRVTITCRAGQDVYKAVAWYQQKPGKAPKLLIYWSTNLYSGVPSRFSGSGSGTDFTLTISSLQPEDFATYYCQQFNLQPTTFGQGTKVEIKR

>  <unit_of_measurement>
M⁻¹ s⁻¹

>  <kon>
321000

$$$$
>  <binder>
PHS102.YP11F (antibody, human IgG1, kappa, N297A, V domains shown, full-length human IgG1-N297A / kappa) VH: EVQLVESGGGLVQPGGSLRLSCAASGFTIDNTYIHWVRQAPGKGLEWVARIDPVSGRTRYADSVKGRFTISADTSKNTADLQMNSLRAEDTAVYYCARAFSWFPDYWGQGTLVTVSS VL: DIQMTQSPSSLSASVGDRVTITCRAGQDVYKAVAWYQQKPGKAPKLLIYWSTNLYSGVPSRFSGSGSGTDFTLTISSLQPEDFATYYCQQFGATPITFGQGTKVEIKR

>  <unit_of_measurement>
M⁻¹ s⁻¹

>  <kon>
334000

$$$$
>  <binder>
PHS102.HSYPP31F (antibody, human IgG1, kappa, N297A, V domains shown, full-length human IgG1-N297A / kappa) VH: EVQLVESGGGLVQPGGSLRLSCAASGFTIEDSYIHWVRQAPGKGLEWVARIDPITGLTHYADSVKGRFTISADTSKNTAYLQMNSLRAEDTAVYYCARAFSWFPDYWGQGTLVTVSS VL: DIQMTQSPSSLSASVGDRVTITCRAGQDVYKAVAWYQQKPGKAPKLLIYWSTNLYSGVPSRFSGSGSGTDFTLTISSLQPEDFATYYCQQIMEPPVTFGQGTKVEIKR

>  <unit_of_measurement>
M⁻¹ s⁻¹

>  <kon>
288000

$$$$

Query PHS102.YP7G (antibody, human IgG1, kappa, N297A, V domains shown, full-length human IgG1-N297A / kappa) VH: EVQLVESGGGLVQPGGSLRLSCAASGFTIDDTYIHWVRQAPGKGLEWVARIDPANGMTRYADSVKGRFMISADTSKNTAYLQMNSLRAEDTAVYYCARAFSWFPDYWGQGTLVTVSS VL: DIQMTQSPSSLSASVGDRVTITCRAGQDVYKAVAWYQQKPGKAPKLLIYWSTNLYSGVPSRFSGSGSGTDFTLTISSLQPEDFATYYCQQGSTWPLTFGQGTKVEIKR yields kon of 247000

This collection of values is drawn from patent US20230078173A1.
